tested on: MS2 coat protein; assay: apparent KD of MS2 coat protein; designed switch direction (-1 OFF switch, 1 ON switch): -1; higher = weaker reporter binding; conditions: input ligand: none
Would you mind telling me the reported apparent KD of MS2 coat protein of each entry?
Give bare numbers, in nM.

Here are 10 sequences together with their reported answers.
{"polymer-sequence": "GACCUCAGUCAGGAUAUAGAUAGCGAUAGCGAAUUAGAAGGGACCACAUGAGGAUCACCCAUGUUAGUAUCAUU [Eternabot (L2) Solution 10] (Eterna round: R97, puzzle: Exclusion 6)", "apparent KD of MS2 coat protein, nM": 34.2}
{"polymer-sequence": "AUGUACCGAAGAAGUUGUAACAUGAGGAUCACCCAUGUCGAAGUGAGGACAGGGAAGAGAAGCUGUGCUCGUCAUAG [Eternabot (L2) Solution 17] (Eterna round: R97, puzzle: Sensor, turn-off variant 1)", "apparent KD of MS2 coat protein, nM": 77.9}
{"polymer-sequence": "CGAUAGAUAGGAUAUAUAAUUGGAAUUCACCUUGGGCGGCUACAUGAGGAUCACCCAUGUAGAAGGGUCUUCGA [Eternabot (L1) Solution 80] (Eterna round: R97, puzzle: Exclusion 2)", "apparent KD of MS2 coat protein, nM": 18.5}
{"polymer-sequence": "AGGUGUAGAGGAUAUCGAAUCCUUUACAUGAGGAUCACCCAUGUCCUGGGCACCCAGGACCGAGAAGGCUACACCA [Omei Ex5 D33] (Eterna round: R97, puzzle: Exclusion 5)", "apparent KD of MS2 coat protein, nM": 2350}
{"polymer-sequence": "AGUCCUGAAGUUAGGAUAUGAAGUAUCACUGCACUUCAGAAGGGACUUGAGGAUCACCCAAGUAGCCGUGAGGG [salish99_bmod_ex4_r4_002] (Eterna round: R97, puzzle: Brourd's mod of Exclusion 4)", "apparent KD of MS2 coat protein, nM": 70.6}
{"polymer-sequence": "UUUUUCUCAGGAUAUACAUGAGGAUCACCCAUGUAUAUUAAGGAUAAUACAUGGGAAUGUAGAAGGGAGCUCAU [Omei Ex3 Pseudoloop 12] (Eterna round: R97, puzzle: Exclusion 3)", "apparent KD of MS2 coat protein, nM": 160}
{"polymer-sequence": "UCAUAGUGAGGAUAUCGGUCCCUGACAAAUAGUUGGGUUAUUGAGAAGGCACAUGAGGAUCACCCAUGUGUCCG [EX4 C.5] (Eterna round: R97, puzzle: Exclusion 4)", "apparent KD of MS2 coat protein, nM": 13.5}
{"polymer-sequence": "UUUACAAGCUUUAGAUCCCACAUGAGGAUCACCCAUGUUCCUGGCCGUGAGGCUAGGUAAACUAAUGCUCGUCUUAU [JL TOV1 3.65] (Eterna round: R97, puzzle: Sensor, turn-off variant 1)", "apparent KD of MS2 coat protein, nM": 244}
{"polymer-sequence": "AUAUAGUGAGGAUAUACAUGAGGAUCACCCAUGUGGUAGUAGAUACAGUAGAGAUAGAGUAGAAGGCACGAUGA [EX3 #26] (Eterna round: R97, puzzle: Exclusion 3)", "apparent KD of MS2 coat protein, nM": 68}
{"polymer-sequence": "AAACUCCGGGUGAGGAUAUCUAGCAUCAAGACGCGAGAGAAGGCACUUGAGGAUCACCCAAGUACGUGGCCUAA [Quare] (Eterna round: R97, puzzle: Brourd's mod of Exclusion 4)", "apparent KD of MS2 coat protein, nM": 99.9}

Please look at the items below and tell me apparent KD of MS2 coat protein for each one, in order.
1. UUUUGGCAUGUAGGAUAUGGGUCCGAUUAGGAUUUAGAAGGACAUGAGGAUCACCCAUGUGCACUUAAUUGGUCUUUUUUUUUU [EXclNG1-LROPPY16] (Eterna round: R96, puzzle: Exclusion NG 1)
2. CCGACCCGAGGAUAUUGUACUGCUGACAUGAGGAUCACCCAUGUAUGUUAACUCGGCCGACGAGAAGGCGGCGACA [BotMod 3 - Jieux - Exclusion 5] (Eterna round: R97, puzzle: Exclusion 5)
3. ACAUGAGGAUCACCCAUGUAAUCAUGAUGGCUGAUGUAGAGUCAGGAUAUGUGUGGCUUUCUAUCGCAGAAGGGACAAGACUGG [Deportation 35 - Jieux - Exclusion NG 3] (Eterna round: R96, puzzle: Exclusion NG 3)
4. UUUAUAAUAAGAUCAAUUAAUUAACAUGAGGAUCACCCAUGUGAGGAUAUCAGCUCGUUUAGAGCUGAGAAGGCACAAUAUAAG [ExNG3/17-B2] (Eterna round: R96, puzzle: Exclusion NG 3)
5. UGCUACGGAGGAUAUACAUGAGGAUCACCCAUGUGUGAGAUUAGGCCGAGAGGCCAAUGUAGAAGGCCGUAGCU [jl-ex3-4.21 jl mod] (Eterna round: R97, puzzle: Exclusion 3)
6. AACGAAGCAGGAUAUACAUGAGGAUCACCCAUGUGCUUGCAUGGCGUGGGAAGUCAUAGUAGAAGGGCUACGCC [EX3 #62] (Eterna round: R97, puzzle: Exclusion 3)

[36.5, 22.1, 43.4, 42.3, 282, 22.1]

Please look at the items below and tell me apparent KD of MS2 coat protein for each one, in order.
1. UAUUAAGCAAGCAGAUCCCACAUGAGGAUCACCCAUGUGCUCGUCUUAUAAGGUACUGUGACGAGAGUCACGGUACC [Mat - Sensor, turn-off var - Eli Mod - D69] (Eterna round: R97, puzzle: Sensor, turn-off variant 1)
2. ACCUCACUUGAGGAUCACCCAAGUCAGGAUAUACUCGUUUGCCACAAAACGCGGCAUUGUAGAAGGGACGGGCU [Esusso] (Eterna round: R97, puzzle: Exclusion 1)

1. 129
2. 21.5
